These data points were gathered from patent US20030021776.

# test.target: VOP 35A-10 (VZ+892) (synthetic)
# Sequence (chain, as listed by the source): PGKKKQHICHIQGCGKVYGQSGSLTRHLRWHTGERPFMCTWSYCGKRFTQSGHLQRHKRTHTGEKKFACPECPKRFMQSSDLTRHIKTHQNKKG
# method: EMSA; 170 mM KCl, 1.7 mM MgCl2, Zn
# details: tags: MBP fusion (pMal-c2), SP1 backbone
reported.metric: pKd
Scale explanation: pKd corresponds to minus log10 of a concentration expressed in moles per litre.

Data request: Please give the documented pKd of VZ+892 target (dsDNA) DNA 1: GCTGGAGCAC DNA 2: GTGCTCCAGC
Data returned: 9.62
